For each of the molecules below, state its log10 of IC50.
# System: IL-23 induced STAT3 signaling (IL-23 receptor) in HEK-Blue IL-23 cells
# assay-text: Inhibition of IL-23 induced STAT3 signaling in HEK-Blue IL-23 cells, SEAP reporter (Table 9)
# Type: cell-based
# particulars: human IL23 0.25 ng/ml, overnight, read-out: Inhibition of IL-23 induced pSTAT3 (IC50 nM)
Numbered stars: 1 amine (or outer) side, 2 acyl side, 3 side chain; on linkers, the order of the positions; unused ones are H or OH. Bridge positions count the residues as written; N and C are the ends. Square brackets hold non-standard residues; d marks the D form. Peptide text beside a SMILES is read from it. * marks the point of attachment. Lys(Me,(CH2)4NMe(CH2)5CO) = CN(CCCCCC(=O)[*:3])CCCCN(C)CCCC[C@H](N[*:1])C(=O)[*:2]; Lys(Me,(CH2)4NMe(CH2)4CO) = CN(CCCCC(=O)[*:3])CCCCN(C)CCCC[C@H](N[*:1])C(=O)[*:2]; Trp(7-Me) = Cc1cccc2c(C[C@H](N)C(=O)O)c[nH]c12; αMeLys(Me2) = CN(C)CCCC[C@](C)(N)C(=O)O; NH(CH2)9CO = O=C(CCCCCCCCCN[*:1])[*:2]; 2Nal = N[C@@H](Cc1ccc2ccccc2c1)C(=O)O; 3Pal = N[C@@H](Cc1cccnc1)C(=O)O; AEEEA = NCCOCCOCCOCC(=O)O; Aun = NCCCCCCCCCCC(=O)O; Thp = NC1(C(=O)O)CCOCC1; Me2NCH2CH2 = CN(C)CC*; Aib = CC(C)(N)C(=O)O; Sar = CNCC(=O)O
Friendly reminder: values = log10 of IC50, unit nM.

Query: Give IL-23 induced STAT3 signaling (IL-23 receptor) in HEK-Blue IL-23 cells log10 of IC50 for CC(=O)NCCCC[C@@H]1NC(=O)[C@H](Cc2c[nH]c3c(C)cccc23)NC(=O)CCCCCCCCCCNC(=O)CC[C@@H](C(=O)N[C@@H](CC(N)=O)C(=O)N[C@@H](Cc2cccnc2)C(=O)N(C)CC(N)=O)NC(=O)[C@](C)(CCCCN(C)C)NC(=O)[C@H](Cc2ccc3ccccc3c2)NC(=O)[C@H](Cc2ccc(OCCN(C)C)cc2)NC(=O)C2(CCOCC2)NC1=O [compound 21] ([Aun][Trp(7-Me)]K(Ac)[Thp]Y(Me2NCH2CH2)[2Nal][αMeLys(Me2)]EN[3Pal][Sar]-NH2; lactam N-8)
Reply: -0.57

Query: Give IL-23 induced STAT3 signaling (IL-23 receptor) in HEK-Blue IL-23 cells log10 of IC50 for Cc1cccc2c(C[C@@H]3NC(=O)COCCOCCOCCNC(=O)CC[C@@H](C(=O)N[C@@H](CC(N)=O)C(=O)N[C@@H](Cc4cccnc4)C(=O)N(C)CC(N)=O)NC(=O)C(C)(C)NC(=O)[C@H](Cc4ccc5ccccc5c4)NC(=O)[C@H](Cc4ccc(OCCN(C)C)cc4)NC(=O)C4(CCOCC4)NC(=O)[C@H](CCC(N)=O)NC3=O)c[nH]c12 [compound 14] ([AEEEA][Trp(7-Me)]Q[Thp]Y(Me2NCH2CH2)[2Nal][Aib]EN[3Pal][Sar]-NH2; lactam N-8)
Reply: 0.08

Query: Give IL-23 induced STAT3 signaling (IL-23 receptor) in HEK-Blue IL-23 cells log10 of IC50 for Cc1cccc2c(C[C@@H]3NC(=O)CCCCCCCCCNC(=O)CC[C@@H](C(=O)N[C@@H](CC(N)=O)C(=O)N[C@@H](Cc4cccnc4)C(=O)N(C)CC(N)=O)NC(=O)C(C)(C)NC(=O)[C@H](Cc4ccc5ccccc5c4)NC(=O)[C@H](Cc4ccc(OCCN(C)C)cc4)NC(=O)C4(CCOCC4)NC(=O)[C@H](CC(C)C)NC3=O)c[nH]c12 [compound 8] ([NH(CH2)9CO][Trp(7-Me)]L[Thp]Y(Me2NCH2CH2)[2Nal][Aib]EN[3Pal][Sar]-NH2; lactam N-8)
Reply: 0.27

Query: Give IL-23 induced STAT3 signaling (IL-23 receptor) in HEK-Blue IL-23 cells log10 of IC50 for CC(=O)NCCCC[C@@H]1NC(=O)[C@H](Cc2c[nH]c3c(C)cccc23)NC(=O)CCCCCN(C)CCCCN(C)CCCC[C@@H](C(=O)NCC(=O)N[C@@H](Cc2cccnc2)C(=O)N(C)CC(N)=O)NC(=O)C(C)(C)NC(=O)[C@H](Cc2ccc3ccccc3c2)NC(=O)[C@H](Cc2ccc(OCCN(C)C)cc2)NC(=O)C2(CCOCC2)NC1=O [compound 27] ([Trp(7-Me)]K(Ac)[Thp]Y(Me2NCH2CH2)[2Nal][Aib][Lys(Me,(CH2)4NMe(CH2)5CO)]G[3Pal][Sar]-NH2; lactam N-7)
Reply: 0.49

Query: Give IL-23 induced STAT3 signaling (IL-23 receptor) in HEK-Blue IL-23 cells log10 of IC50 for CC(=O)NCCCC[C@@H]1NC(=O)[C@H](Cc2c[nH]c3c(C)cccc23)NC(=O)CCCCN(C)CCCCN(C)CCCC[C@@H](C(=O)N[C@@H](CO)C(=O)N[C@@H](Cc2cccnc2)C(=O)N(C)CC(N)=O)NC(=O)C(C)(C)NC(=O)[C@H](Cc2ccc3ccccc3c2)NC(=O)[C@H](Cc2ccc(OCCN(C)C)cc2)NC(=O)C2(CCOCC2)NC1=O [compound 39] ([Trp(7-Me)]K(Ac)[Thp]Y(Me2NCH2CH2)[2Nal][Aib][Lys(Me,(CH2)4NMe(CH2)4CO)]S[3Pal][Sar]-NH2; lactam N-7)
Reply: 0.25

---

# assay-text: Solubility of peptide compounds in buffer formulations (Table 5)
# Type: physicochemical
# particulars: aqueous buffer; 50 mM phosphate buffer pH 7.4, 2 h agitation, target 1 mg/ml; read-out: Solubility, Buffer pH 7.4
Numbered stars: 1 amine (or outer) side, 2 acyl side, 3 side chain; on linkers, the order of the positions; unused ones are H or OH. Bridge positions count the residues as written; N and C are the ends. Square brackets hold non-standard residues; d marks the D form. Peptide text beside a SMILES is read from it. * marks the point of attachment. Lys(Me,(CH2)4NMe(CH2)5CO) = CN(CCCCCC(=O)[*:3])CCCCN(C)CCCC[C@H](N[*:1])C(=O)[*:2]; Lys(Me,(CH2)4NMe(CH2)4CO) = CN(CCCCC(=O)[*:3])CCCCN(C)CCCC[C@H](N[*:1])C(=O)[*:2]; Trp(7-Me) = Cc1cccc2c(C[C@H](N)C(=O)O)c[nH]c12; Trp(1-Me) = Cn1cc(C[C@H](N)C(=O)O)c2ccccc21; 2Nal = N[C@@H](Cc1ccc2ccccc2c1)C(=O)O; 3Pal = N[C@@H](Cc1cccnc1)C(=O)O; Thp = NC1(C(=O)O)CCOCC1; Me2NCH2CH2 = CN(C)CC*; Aib = CC(C)(N)C(=O)O; Sar = CNCC(=O)O
For each of the molecules below, state its solubility at 2 h.

Query: # input molecule: CC(=O)NCCCC[C@@H]1NC(=O)[C@H](Cc2c[nH]c3c(C)cccc23)NC(=O)CCCCCN(C)CCCCN(C)CCCC[C@@H](C(=O)N[C@@H](CC(N)=O)C(=O)N[C@@H](Cc2cccnc2)C(=O)N(C)CC(N)=O)NC(=O)C(C)(C)NC(=O)[C@H](Cc2ccc3ccccc3c2)NC(=O)[C@H](Cc2ccc(OCCN(C)C)cc2)NC(=O)C2(CCOCC2)NC1=O [compound 18] ([Trp(7-Me)]K(Ac)[Thp]Y(Me2NCH2CH2)[2Nal][Aib][Lys(Me,(CH2)4NMe(CH2)5CO)]N[3Pal][Sar]-NH2; lactam N-7) ; wanted: its solubility at 2 h
Reply: ≥ 990 µg/mL

Query: # input molecule: CN(C)CCOc1ccc(C[C@@H]2NC(=O)C3(CCOCC3)NC(=O)[C@H](CCC(N)=O)NC(=O)[C@H](Cc3cn(C)c4ccccc34)NC(=O)CCCCN(C)CCCCN(C)CCCC[C@@H](C(=O)N[C@@H](CO)C(=O)N[C@@H](Cc3cccnc3)C(=O)N(C)CC(N)=O)NC(=O)C(C)(C)NC(=O)[C@H](Cc3ccc4ccccc4c3)NC2=O)cc1 [compound 40] ([Trp(1-Me)]Q[Thp]Y(Me2NCH2CH2)[2Nal][Aib][Lys(Me,(CH2)4NMe(CH2)4CO)]S[3Pal][Sar]-NH2; lactam N-7) ; wanted: its solubility at 2 h
Reply: ≥ 1060 µg/mL

---

# assay-text: Protease stability in simulated intestinal fluids (FaSSIF) (Table 7)
# Assay type: in vitro ADME
# particulars: fassif with pancreatin, 120 min, 37° C., read-out: Remaining percentage of peptide compound, FaSSIF 120 (min)
Numbered stars: 1 amine (or outer) side, 2 acyl side, 3 side chain; on linkers, the order of the positions; unused ones are H or OH. Bridge positions count the residues as written; N and C are the ends. Square brackets hold non-standard residues; d marks the D form. Peptide text beside a SMILES is read from it. * marks the point of attachment. Lys(Me,(CH2)4NMe(CH2)5CO) = CN(CCCCCC(=O)[*:3])CCCCN(C)CCCC[C@H](N[*:1])C(=O)[*:2]; Trp(7-Me) = Cc1cccc2c(C[C@H](N)C(=O)O)c[nH]c12; Trp(1-Me) = Cn1cc(C[C@H](N)C(=O)O)c2ccccc21; 2Nal = N[C@@H](Cc1ccc2ccccc2c1)C(=O)O; 3Pal = N[C@@H](Cc1cccnc1)C(=O)O; Aun = NCCCCCCCCCCC(=O)O; Thp = NC1(C(=O)O)CCOCC1; Me2NCH2CH2 = CN(C)CC*; Aib = CC(C)(N)C(=O)O; Sar = CNCC(=O)O
observation-type: remaining at 2 h, 1 µM (%)
Report the value in % with no unit label.

Query: # input compound: CN(C)CCOc1ccc(C[C@@H]2NC(=O)C3(CCOCC3)NC(=O)[C@H](CCC(N)=O)NC(=O)[C@H](Cc3cn(C)c4ccccc34)NC(=O)CCCCCN(C)CCCCN(C)CCCC[C@@H](C(=O)N[C@@H](CC(N)=O)C(=O)N[C@@H](Cc3cccnc3)C(=O)N(C)CC(N)=O)NC(=O)C(C)(C)NC(=O)[C@H](Cc3ccc4ccccc4c3)NC2=O)cc1 [compound 33] ([Trp(1-Me)]Q[Thp]Y(Me2NCH2CH2)[2Nal][Aib][Lys(Me,(CH2)4NMe(CH2)5CO)]N[3Pal][Sar]-NH2; lactam N-7) ; wanted: its remaining at 2 h, 1 µM
Reply: 94

Query: # input compound: CC(=O)NCCCC[C@@H]1NC(=O)[C@H](Cc2c[nH]c3c(C)cccc23)NC(=O)CCCCCCCCCCNC(=O)CC[C@@H](C(=O)N[C@@H](CC(N)=O)C(=O)N[C@@H](Cc2cccnc2)C(=O)N(C)CC(N)=O)NC(=O)C2(CCOCC2)NC(=O)[C@H](Cc2ccc3ccccc3c2)NC(=O)[C@H](Cc2ccc(OCCN(C)C)cc2)NC(=O)C2(CCOCC2)NC1=O [compound 50] ([Aun][Trp(7-Me)]K(Ac)[Thp]Y(Me2NCH2CH2)[2Nal][Thp]EN[3Pal][Sar]-NH2; lactam N-8) ; wanted: its remaining at 2 h, 1 µM
Reply: 92
